# experimental-protocol: Actual solubility in aqueous buffers / cosolvent (HPLC, spectrophotometer)
# Type: physicochemical
# experimental-setup: 80 mM phosphate buffer, pH 6.9, aqueous buffer, thermodynamic from solid, lyophilized, 80 mM phosphate buffer, pH 6.9; read-out: solubility following lyophilization
readout-kind: solubility

Input: // query solubility value for entry CCCCCCC(C)(C)c1cc(O)c([C@H]2CC(=O)C3CC2C3(C)C)c(OC(=O)/C=C/C(=O)O)c1 (single isomer, unassigned; (-)) [Compound 18F]
Output: ≤ 60 mg/mL
